Let's look at some compounds and their measured GI50.
System: SK-MEL-5
Assay: NCI tumour cell line growth inhibition, 48 h
Activity calls are given as the source filed them. Cut-off read from the data, not from the text of the source: active = GI50 up to about 1.1 µM and inactive = higher.

A selection of reference data follows.
{"columns": ["compound", "tgt", "measured-quantity", "data-value"],
 "data": [
  ["O=C1CSc2cc([N+](=O)[O-])ccc2N1", "SK-MEL-5", "GI50", "> 100 µM (inactive)"],
  ["Clc1ccc(-c2nn3c(COc4cccc(OCc5nnc6sc(-c7ccc(Cl)cc7)nn56)c4)nnc3s2)cc1", "SK-MEL-5", "GI50", "15.2 µM (inactive)"]
]}

Request: Bench note: what GI50 did CCCCCCCCCCCCCCCCOP(=O)(O)OCC(N)C(=O)O (stereo unspecified) show?
Response: 17.8 µM (inactive)

Request: Note, next up: c1ccc(Nc2nnc(CCCCCCCCc3nnc(Nc4ccccc4)o3)o2)cc1
Response: > 100 µM (inactive)

Request: Note, next up: O=C(c1ccc(O)c([N+](=O)[O-])c1)c1ccc(O)c([N+](=O)[O-])c1
Response: > 100 µM (inactive)

Request: Note, next up: COCC1N=C(c2cc(OC)c(OC)c(OC)c2-c2cc3c(cc2[C@@H](C)O)OCO3)O[C@H]1c1ccccc1 (stereo partly specified)
Response: > 76.7 µM (inactive)

* * *

Tested on: DU-145
Assay: NCI tumour cell line growth inhibition, 48 h
Calls of active or inactive are those of the source. Cut-off read from the data, not from the text of the source: active = GI50 up to about 1.1 µM and inactive = higher. Where a SMILES comes first, the peptide text is derived from it. The star is where a group is joined. Fmoc = O=C(OCC1c2ccccc2-c2ccccc21)*; OtBu = CC(C)(C)O*
measured-quantity: GI50

{"columns": ["molecule", "tgt", "GI50"],
 "data": [
  ["CC(C)C(NC(=O)OCC1c2ccccc2-c2ccccc21)C(=O)NC(CCC(=O)OC(C)(C)C)C(=O)OC(C)(C)C (stereo not drawn) (Fmoc-Val-Glu(OtBu)-OtBu; configuration not given here)", "DU-145", "> 100 µM (inactive)"],
  ["Clc1ccc(NCNC2Nc3ccccc3N2)cc1Cl", "DU-145", "> 100 µM (inactive)"]
]}

Kindly consider the entry below.
Request: Bench note: what GI50 did O=C(/C=C(\S/C=C(/c1ccccc1)N1CCn2c(C(=O)c3ccccc3)c(C(=O)c3ccccc3)c(C(=O)c3ccccc3)c21)C(=O)c1ccccc1)c1ccccc1 show?
Response: > 10 µM (inactive)

* * *

System: UACC-62
Assay: NCI tumour cell line growth inhibition, 48 h
Active and inactive are the calls of the source. Cut-off read from the data, not from the text of the source: active = GI50 up to about 1.1 µM and inactive = higher.
Return exactly one item of 1 for active, -1 for inactive

Solved entries (count: 2):
{"columns": ["compound", "group"],
 "data": [
  ["CC(=O)c1cccc(NC(=O)C(=O)NNc2nnc(S)n2N)c1", -1],
  ["NC(Cc1ccc2nc3c4ccccc4c(=O)cc-3oc2c1)C(=O)O (stereo not drawn)", -1]
]}

Request: Hi, do you know how CC1CC/C(=C\c2ccc(N(C)C)cc2)C(=O)/C1=C/c1ccc(N(C)C)cc1 (stereo not drawn) came out in this test?
Response: -1

Request: Note, next up: O=C(NC(=O)c1c(F)cccc1F)Nc1cccc(Oc2ncc(Cl)cn2)c1
Response: -1

Request: Note, next up: O=C(ON=c1c2ccccc2ccc2ccccc12)c1ccccc1
Response: -1

Request: Note, next up: CN(C)CCNC(=O)c1ccc(Cl)c2ccc(-c3ccccc3)nc12
Response: -1

Request: Note, next up: C=C[C@@H](C)[C@H](NS(=O)(=O)c1ccc(C)cc1)C(=O)OCC
Response: -1

Request: Note, next up: COc1ccc2cc(-c3nc(N)nc(N4N=C(C)CC4(C)C)n3)c(=N)oc2c1
Response: -1

Request: Note, next up: OB1OCc2ccccc21 [BENZOXABOROLE]
Response: -1

Request: Note, next up: C[C@@H](CN1CC(=O)NC(=O)C1)N1CC(=O)NC(=O)C1 [DEXRAZOXANE]
Response: -1

Request: Note, next up: CC(C)=CCNc1ncnc2c1ncn2CCC(=O)O
Response: -1

Request: Note, next up: CC(=O)OCc1cc(=O)n2c([nH]c3ccccc32)c1C#N
Response: -1

Request: Note, next up: Oc1cc(-c2cccc(Cl)c2)nc2ncccc12
Response: 1

* * *

System: SK-OV-3
Assay: NCI tumour cell line growth inhibition, 48 h
Active and inactive are the calls of the source. No stated cut-off is given here; in the data, active = GI50 up to about 1.1 µM and inactive = higher.
Let's look at some molecules and their measured GI50.

A selection of reference data follows.
{"columns": ["molecule", "data-value"],
 "data": [
  ["CC(=O)OCC1OC(n2c(C)c(/N=N/c3ccc(Cl)cc3)c(C)c(C#N)c2=S)C(OC(C)=O)C(OC(C)=O)C1OC(C)=O (centres undefined)", "36.3 µM (inactive)"],
  ["CC1=Nn2c(nnc2-c2ccccc2Cl)NC(C)(C)C1", "> 100 µM (inactive)"],
  ["Cc1cn([C@@H]2O[C@H](CO[Si](C)(C)C(C)(C)C)[C@]3(O[C@H]3C(=O)NO)[C@H]2O[Si](C)(C)C(C)(C)C)c(=O)[nH]c1=O", "1.87 µM (inactive)"],
  ["CCOC(=O)N1CCC2C(=C(C)C(C)C3=C2C(=O)c2ccccc2C3=O)C1 (centres undefined)", "> 10 µM (inactive)"],
  ["CC(C)c1ccc2c(c1)/C(=C1/Nc3ccccc3/C1=N/O)C(=O)N2", "6.55 µM (inactive)"]
]}

Request: Bench note: what GI50 did CC(C)(C)COS(=O)OCC(C)(C)C show?
Response: > 100 µM (inactive)

Request: Note, next up: CCOP(=O)(OCC)/C(C#N)=C(\C)c1ccco1
Response: > 10 µM (inactive)

Request: Note, next up: CN(C)c1ccc(/C=C(\NC(=O)c2ccccc2)C(=O)NC(CCC(=O)O)C(=O)O)cc1 (centres undefined)
Response: > 100 µM (inactive)

Request: Note, next up: O=c1/c(=C/c2ccc([N+](=O)[O-])o2)sc2n1[C@@H](c1ccc3c(c1)OCO3)C=C(c1cc(F)c(Cl)cc1Cl)N=2
Response: 46.5 µM (inactive)

* * *

Test system: NCI/ADR-RES
Experiment: NCI tumour cell line growth inhibition, 48 h
The source made the active and inactive calls. No stated cut-off is given here; in the data, active = GI50 up to about 1.1 µM and inactive = higher.
Let's look at some compounds and their measured GI50.

{"columns": ["compound", "tgt", "data-value"],
 "data": [
  ["COCn1c2ccc(OC(C)=O)cc2c2c(=O)oc(C)nc21", "NCI/ADR-RES", "> 100 µM (inactive)"],
  ["N#Cc1c(NC(=O)CCC(=O)O)ccc2ccccc12", "NCI/ADR-RES", "> 100 µM (inactive)"],
  ["CC(C)C[C@H](NC(=O)[C@H](Cc1ccccc1)NC(=O)c1cnccn1)B(O)O [BORTEZOMIB]", "NCI/ADR-RES", "0.0141 µM (active)"],
  ["O=C(O)c1ccccc1SCc1cccc2c(=O)c3ccc(Cl)cc3oc12", "NCI/ADR-RES", "> 50 µM (inactive)"],
  ["C=C(Cl)C(=C)CCC(Cl)C(C)(C)Cl (stereo not drawn)", "NCI/ADR-RES", "> 100 µM (inactive)"]
]}

Request: Bench note: what GI50 did COc1cc2c(cc1OCCCCCOc1cc3c(cc1OC)C(=O)N1CCC[C@H]1C(=O)N3)N=C[C@@H]1CCCN1C2=O show?
Response: 7.8 µM (inactive)

Request: Note, next up: COCC1N=C(c2cc(OC)c(OC)c(OC)c2-c2cc3c(cc2[C@@H](C)O)OCO3)O[C@H]1c1ccccc1 (stereo partly drawn)
Response: 40.2 µM (inactive)

Request: Note, next up: COc1cc(C2c3cc4c(cc3C(=O)C3CCC(=O)N32)OCO4)cc(OC)c1O (stereo not drawn)
Response: > 50 µM (inactive)

* * *

System: HCT-116
Experiment: NCI tumour cell line growth inhibition, 48 h
Calls of active or inactive are those of the source. Cut-off read from the data, not from the text of the source: active = GI50 up to about 1.1 µM and inactive = higher.
Return exactly one item of T = active, F = inactive

Solved entries (count: 10):
{"columns": ["compound", "group"],
 "data": [
  ["O=C1C=CC2(C=C1)O[C@H](CCc1ccccc1)[C@@H](CCc1ccccc1)O2", "F"],
  ["COc1ccc(CC2NCCc3cc(OC)c(OC)cc32)cc1Br (stereo not given)", "F"],
  ["CCOC(=O)c1cc(C)nc2c1c(=O)n(-c1ccccc1)c(=O)n2CCCCN1CCN(c2ccccc2)CC1", "F"],
  ["CCOC(=O)C1=C(C)OC(=O)[C@@]2(OC)C=C(Cl)[C@@]12C", "F"],
  ["O=S(O)c1cc(Cl)cc(Cl)c1OCc1ccccc1", "F"],
  ["CC(=O)NNc1nc(C)c(C(/C=C/c2ccc(Cl)cc2)=N\\N=C(N)N)s1", "F"],
  ["C=C1C(=O)C23CC1C[C@H](OC(C)=O)C2C1(C)C(OC(C)=O)C[C@H](O)C(C)(C)[C@H]1C(O)[C@@H]3OC(C)=O (stereo not given in full)", "F"],
  ["CC(C)(C)c1nc2c(o1)C(=O)c1ccccc1C2=O", "T"],
  ["NC(=O)N/N=C1/c2ccccc2-n2nccc21", "F"],
  ["CC(=O)NC1=C(C)C(=O)c2c(nc3n2CCC3OC(=O)CCl)C1=O (stereo not given)", "F"]
]}

Request: Hi, do you know how O=C1CSc2cc([N+](=O)[O-])ccc2N1 came out in this test?
Response: F

Request: Note, next up: CC1=CC(=O)[C@@H](O)[C@]2(C)[C@H]3[C@@]4(O)OC[C@@]35[C@@H](C[C@@H]12)OC(=O)C(OC(=O)CC1=CCCC1)[C@H]5[C@@H](C)[C@H]4O (stereo not given in full)
Response: T
